Measured values drawn from ChEMBL document CHEMBL1147331 for this set.

Listed below: CC50 at 72 h values for each entry.
# test: Cytotoxicity against human KBV1 cells after 3 days by sulforhodamine B assay
# Assay type: cell-based, KB-V1
# conditionInfo: read-out: ED50
readoutName: CC50 at 72 h (µg/mL)

1. COc1ccc2cc1Oc1ccc(cc1)C[C@H]1c3cc(c(OC)cc3CCN1C)Oc1c(O)c(OC)cc3c1[C@@H](C2)NCC3 = 8.1
2. COc1ccc2cc1Oc1ccc(cc1)C[C@H]1c3c(cc(OC)c(OC)c3Oc3cc4c(cc3OC)CCN(C)[C@@H]4C2)CCN1C = 2.6
3. OC(c1cc(C(F)(F)F)nc2c(C(F)(F)F)cccc12)C1CCCCN1 (stereo not given) = 1.1
4. COc1ccc2cc1Oc1ccc(cc1)C[C@H]1c3c(cc(O)c(OC)c3Oc3cc4c(cc3OC)CCN(C)[C@@H]4C2)CCN1C = 7.4
5. COc1ccc2cc1Oc1ccc(cc1)C[C@H]1c3cc(c(OC)cc3CCN1C)Oc1c(OC)c(OC)cc3c1[C@@H](C2)N(C)CC3 = 1.5

---

# test: Ratio of ED50 for human KB cells to ED50 for human KBV1 cells
# Format: ADME, cell-based
# conditionInfo: KB cells and KBV1 cells, read-out: Ratio ED50
readoutName: selectivity ratio

1. COc1ccc2cc1Oc1ccc(cc1)C[C@H]1c3c(cc(OC)c4c3Oc3cc5c(cc3O4)CCN(C)[C@@H]5C2)CCN1C = 10

---

# test: in vitro
# conditionInfo: mouse, P388 cells
# Description: Selectivity index, ratio of ED50 for mice (Mus musculus) P388 cells to ED50 for chloroquine-resistant Plasmodium falciparum W2
readoutName: selectivity ratio

1. COc1ccc2cc1Oc1ccc(cc1)C[C@H]1c3cc(c(OC)cc3CCN1C)Oc1c(OC)c(OC)cc3c1[C@@H](C2)N(C)CC3 = 103
2. COc1ccc2cc1Oc1ccc(cc1)C[C@H]1c3c(cc(O)c(OC)c3Oc3cc4c(cc3OC)CCN(C)[C@@H]4C2)CCN1C = 76
3. COc1ccc2cc1Oc1ccc(cc1)C[C@H]1c3c(cc(OC)c4c3Oc3cc5c(cc3O4)CCN=C5C2)CCN1C = 12
4. COc1ccc2cc1Oc1ccc(cc1)C[C@H]1c3c(cc(OC)c(O)c3Oc3cc4c(cc3OC)CCN[C@@H]4C2)CCN1C = 9

---

Readings of selectivity ratio for the listed compounds
# test: in vitro
# conditionInfo: mouse, P388 cells
# Description: Selectivity index, ratio of ED50 for mice (Mus musculus) P388 cells to ED50 for chloroquine-sensitive Plasmodium falciparum D6
readoutName: selectivity ratio

1. COc1ccc2cc1Oc1ccc(cc1)C[C@H]1c3c(cc(OC)c4c3Oc3cc5c(cc3O4)CCN=C5C2)CCN1C = 10
2. COc1ccc2cc1Oc1ccc(cc1)C[C@H]1c3c(cc(OC)c4c3Oc3cc5c(cc3O4)CCN(C)[C@@H]5C2)CCN1C = 57
3. COc1ccc2cc1Oc1ccc(cc1)C[C@H]1c3c(cc(OC)c(O)c3Oc3cc4c(cc3OC)CCN(C)[C@@H]4C2)CCN1C = 35
4. C=C[C@H]1CN2CC[C@H]1C[C@H]2[C@H](O)c1ccnc2ccc(OC)cc12 = > 658
5. COc1ccc2cc1Oc1ccc(cc1)C[C@H]1c3c(cc(OC)c(O)c3Oc3cc4c(cc3OC)CCN[C@@H]4C2)CCN1C = 32
6. COc1ccc2cc1Oc1ccc(cc1)C[C@H]1c3c(cc4c(c3Oc3cc5c(cc3OC)CCN(C)[C@@H]5C2)OCO4)CCN1C = 2
7. COc1ccc2cc1Oc1ccc(cc1)C[C@H]1c3c(cc(OC)c(OC)c3Oc3cc4c(cc3OC)CCN(C)[C@@H]4C2)CCN1C = 18
